Measured Attribute: intrinsic clearance, human liver microsomes (mL/min/kg)

Known intrinsic clearance, human liver microsomes results, listed for orientation:
1. CNc1ncc(-c2nc(C3(c4ccccc4)CC3)nn2C(C)(C)C)cn1 ... 61.5
2. CC(C)(CO)NCCCCn1c2ccccc2c2ccccc21 ... 54.2
3. O=C(C1CC1c1ccc(F)cc1)N1CCC(n2c(=O)[nH]c3ccccc32)CC1 (stereo not given) ... 14.7
4. Cn1cc(CCNC(=O)N2CCc3sccc3C2)cn1 ... 15
5. O=C1NCCCCC1NC(=O)N1CCc2sccc2C1 (stereo not given) ... 4.84

[a] Cc1oc2ccccc2c1CNc1nnc(-c2ccncc2)o1
[b] CCCNC(=O)C1(NCc2csnn2)CCCCC1
[c] COc1ccccc1NC(=O)CN1CCCN(c2nc(C)cs2)CC1
[d] Cc1c(Cl)ccc2cc3n(c12)[C@@H](C)CNC3=O
[e] Cc1nnc(NCCc2ccc3c(c2)OCO3)c(C#N)c1C
[ask] Number of molecules to sort: 5. Sort criterion: intrinsic clearance, human liver microsomes, ascending. Record the ranking as a list of labels in the requested order.
[reply] b, d, a, e, c
(b: 7.42 mL/min/kg, d: 10.8 mL/min/kg, a: 33.4 mL/min/kg, e: 52.1 mL/min/kg, c: 359 mL/min/kg)

[a] Cc1cccc(N(C)C(=O)COC2CCCC2)n1
[b] CC(C)(C)c1ccc(=O)n(CC2CN(CC3(O)CCCC3)C2)n1
[ask] Compare a and b and name the one whose reported intrinsic clearance, human liver microsomes is smaller. // caller expects the label of the chosen entry
[reply] b

[I] CN1CCN(S(=O)(=O)Cc2ccc(Cl)c(Cl)c2)CC1
[II] O=C(c1ccccc1N1CCOCC1)N(Cc1ccccn1)C1CCCCC1
[III] Cc1cc(C)c2c(N(C)CCC(C)C)ncnc2n1
[IV] Cc1ccc(C)c(C(=O)Nc2cnc3c(c2)c(C)nn3C)c1
[ask] Please put the entries in order of rising intrinsic clearance, human liver microsomes. Form entry: ranked labels (order as requested).
[reply] IV, III, I, II
(IV: 6.52 mL/min/kg, III: 14.3 mL/min/kg, I: 33.9 mL/min/kg, II: 990 mL/min/kg)

[P] Cn1nccc1C(=O)NCCc1cc2nc(-c3cccs3)ccn2n1
[Q] Cc1ccc(C)c(OCC(=O)N2CCC(C(=O)Nc3ccccc3)CC2)c1
[R] O=c1n(CCc2ccncc2)nnn1-c1ccccc1
[S] Clc1cccc(CNc2nc(C3CC3)no2)c1
[T] Cc1cc(NC(=O)c2cc(F)cc(F)c2)sn1
[ask] Ordering: ascending intrinsic clearance, human liver microsomes. API: response body holds the labels in the requested order.
[reply] R, S, P, T, Q
(R: 5.8 mL/min/kg, S: 22 mL/min/kg, P: 67.5 mL/min/kg, T: 130 mL/min/kg, Q: 302 mL/min/kg)

[a] Cc1ccc(C(=O)N2CCC(Cc3ccccc3-c3ccccc3)(C(=O)N(C)C)CC2)s1
[b] N#CCCN(C(=O)c1sccc1C#N)C12CC3CC(CC(C3)C1)C2
[ask] Returns: the argument ( a or b ) having the larger intrinsic clearance, human liver microsomes. To answer, give the label that identifies your chosen option.
[reply] a
(a: 768 mL/min/kg, b: 320 mL/min/kg)

[A] CCCn1ncc2[nH]c(C3CCCCC3)nc21
[B] CC(C)n1nccc1-c1ncccc1COc1cccc(O)c1C=O
[ask] Quick one: lower intrinsic clearance, human liver microsomes, A or B ? Reply briefly: the label of your chosen item.
[reply] A

[I] O=C(Nc1cccc(-c2nncn2C2CC2)c1)c1cc(-n2cnc(C3CC3)c2)ccn1
[II] Cc1nc(-c2ccccc2)nc(O)c1C
[ask] Could you determine which record has the numerically smaller intrinsic clearance, human liver microsomes? Candidates: I and II Identify your selection by its label.
[reply] I

[P] O=C(NC[C@H]1COCc2nc3ccccc3n21)c1ccncc1
[Q] COc1cccc(-c2cccc(N)n2)c1F
[ask] Between these two entries, P and Q , state which has the higher intrinsic clearance, human liver microsomes. Which one? Tell me its label.
[reply] Q
(Q: 84.1 mL/min/kg, P: 18.9 mL/min/kg)
